# Test system: Monochoria vaginalis
# test_summary: Test Example 12: herbicidal effect test by treatment during growing period in paddy field
# Type: in vivo
# protocol_conditions: 120 g/10a; treatment seven days after sowing in flooded paddy pot; assessed 14 days after treatment
Binary call on Weed suppression rate (%) Monochoria vaginalis: criterion met from 80% upward, criterion not met beneath that.

Study these solved cases before continuing.
CCN(CC)C(=O)n1cnn(S(=O)(=O)c2ccccc2C)c1=O [Compound 11-622]	criterion not met
CC(C)N(C(=O)n1cnn(S(=O)(=O)C(C)C)c1=O)c1ccc(Br)cc1Cl [Compound 11-70]	criterion met
CC(C)N(C(=O)n1cnn(S(=O)(=O)c2ccc(C(C)(C)C)cc2)c1=O)c1ccc(F)cc1F [Compound 11-682]	criterion met
CC(C)N(C(=O)n1cnn(S(=O)(=O)C(C)C)c1=O)c1ccc(Cl)cc1F [Compound 11-67]	criterion met
CC(C)N(C(=O)n1cnn(S(=O)(=O)N(C)C)c1=O)c1ccc(Cl)cc1F [Compound 11-1072]	criterion not met

Q. Does the reported Weed suppression rate (%) Monochoria vaginalis for CCN(CC)C(=O)n1cnn(S(=O)(=O)c2cccc(Cl)c2)c1=O [Compound 11-538] fall at or above the 80% mark?
A. criterion not met

Q. Does the reported Weed suppression rate (%) Monochoria vaginalis for CC(C)N(C(=O)n1cnn(S(=O)(=O)c2ccccc2Cl)c1=O)c1ccc(F)cc1F [Compound 11-512] fall at or above the 80% mark?
A. criterion met

Q. Does the reported Weed suppression rate (%) Monochoria vaginalis for Cc1ccc(S(=O)(=O)n2ncn(C(=O)N(c3c(F)c(F)cc(F)c3F)C(C)C)c2=O)cc1 [Compound 11-642] fall at or above the 80% mark?
A. criterion met

Q. Does the reported Weed suppression rate (%) Monochoria vaginalis for CC(C)N(C(=O)n1cnn(S(=O)(=O)c2ccccc2C(F)(F)F)c1=O)c1ccc(F)cc1F [Compound 11-711] fall at or above the 80% mark?
A. criterion not met

---

Recorded herbicidal effect, Amaranthus viridis values for a group of compounds are listed next.
# Tested on: Amaranthus viridis
# test_summary: Test Example 14: herbicidal effect test by foliage treatment in upland field
# Format: in vivo
# protocol_conditions: 7 days after sowing, 120 g/10a, 14 days after treatment
Give the quantity in %, number only.

Some solved entries appear below for comparison.
CC(C)N(C(=O)n1cnn(S(=O)(=O)C2CCCCC2)c1=O)c1ccc(F)cc1F	90
CC(C)N(C(=O)n1cnn(S(=O)(=O)C2CC2)c1=O)c1ccccc1	90
CC(C)N(C(=O)n1cnn(S(=O)(=O)C(C)C)c1=O)c1c(F)cc(F)cc1F	60

Note: attention shifts to another entry.
Q. Find the recorded herbicidal effect, Amaranthus viridis belonging to `CC(C)N(C(=O)n1cnn(S(=O)(=O)c2ccc(C(C)(C)C)cc2)c1=O)c1ccc(Cl)cn1` and report it.
A. 70

---

# Tested on: Monochoria vaginalis
# test_summary: Test Example 12: herbicidal effect test by treatment during growing period in paddy field
# Type: in vivo
# protocol_conditions: 120 g/10a; treatment seven days after sowing in flooded paddy pot; assessed 14 days after treatment
Recorded Weed suppression rate (%) Monochoria vaginalis values for a group of molecules are listed next.
Give the quantity in %, number only.

Some solved entries appear below for comparison.
Cc1cc(Cl)ccc1N(C(=O)n1cnn(S(=O)(=O)N(C)C)c1=O)C(C)C [Compound 11-1079]	80
CC(C)N(C(=O)n1cnn(S(=O)(=O)N(C)C)c1=O)c1ccc(F)cc1Cl [Compound 11-1071]	80
CC(C)N(C(=O)n1cnn(S(=O)(=O)c2c(F)c(F)c(F)c(F)c2F)c1=O)c1ccccc1F [Compound 11-801]	80

Note: attention shifts to another entry.
Q. Find the recorded Weed suppression rate (%) Monochoria vaginalis belonging to CC(C)N(C(=O)n1cnn(S(=O)(=O)N(C)C)c1=O)c1ccc(Cl)cn1 [Compound 11-1090] and report it.
A. 60

---

# System: Monochoria vaginalis
# test_summary: Test Example 12: herbicidal effect test by treatment during growing period in paddy field
# Type: in vivo
# protocol_conditions: 120 g/10a; treatment seven days after sowing in flooded paddy pot; assessed 14 days after treatment
# Method: This test was performed with two replications per one formulation concentration plot, and 14 days after the formulation treatments, the weed suppression rate (%) was determined according to the following equation (Math. 2). Weed suppression rate (%)=(1−average dry weight (g) of plants in treated plots/average dry weight (g) of plants in untreated plots)×100 [Math. 2] […]
measurement_name: Weed suppression rate (%) Monochoria vaginalis
Give the quantity in %, number only.

Some solved entries appear below for comparison.
Cc1cc(C)c(S(=O)(=O)n2ncn(C(=O)N(c3ccc(F)cc3F)C(C)C)c2=O)c(C)c1	90
Cc1cc(C)c(S(=O)(=O)n2ncn(C(=O)N(c3cccc(F)c3F)C(C)C)c2=O)c(C)c1	100
CC(C)N(C(=O)n1cnn(S(C)(=O)=O)c1=O)c1ccccc1	80
CC(C)N(C(=O)n1cnn(S(=O)(=O)c2ccc(C(C)(C)C)cc2)c1=O)c1cccc(F)c1F	100
CC(C)N(C(=O)n1cnn(S(=O)(=O)C(C)C)c1=O)c1ccccc1	90

Q. Find the recorded Weed suppression rate (%) Monochoria vaginalis belonging to `CC(C)N(C(=O)n1cnn(S(=O)(=O)C(C)C)c1=O)c1ccc(F)cc1Cl` and report it.
A. 80

Q. Find the recorded Weed suppression rate (%) Monochoria vaginalis belonging to `CC(C)N(C(=O)n1cnn(S(=O)(=O)c2cccc(C(F)(F)F)c2)c1=O)c1ccc(Cl)cc1Br` and report it.
A. 90
